Data provenance is patent US20250163057A1.

- System: Cullin-3 (CUL3) neddylation
- Experimental details: AlphaLISA assay for Cullin-3 (CUL3) neddylation in TF 1 cells
- Type: cell-based
- Assay setup: Homo sapiens, TF-1, 3 h, 3 hours treatment
Here the recorded IC50 is given for each entry.

Some solved entries appear below for comparison.
Compound	IC50
CCN1C(=O)[C@@H](NC(=O)c2cccc(C(F)(F)F)c2)[C@@H](C2CC2)c2c(C(=O)N(CC#N)C3CC3)nn(C3CC3)c21 [Compound I-702]	100 to 1000 nM
CCN(CC#N)C(=O)c1nn(-c2ccccc2)c2c1[C@H](c1ccc(F)cc1)[C@H](NC(=O)c1cccc(C(F)(F)F)c1)C(=O)N2CC (stereo in doubt) [Compound I-283]	≤ 100 nM

IN: May I ask what IC50 has been recorded for C=C(CN1CC2(COC2)C1)C(=O)NCc1nn(-c2ccccc2)c2c1[C@H](c1ccc(F)cc1)[C@H](NC(=O)c1cccc(C(F)(F)F)c1)C(=O)N2CC [Compound I-138] ?
OUT: ≤ 100 nM

IN: May I ask what IC50 has been recorded for CCN1C(=O)[C@@H](NC(=O)c2cccc(C(F)(F)F)c2)[C@@H](c2ccc(F)cc2)c2c(CNC(=O)[C@H](C)Br)nn(-c3ccccc3)c21 (racemic) [Compound I-180] ?
OUT: 100 to 1000 nM

IN: May I ask what IC50 has been recorded for CCN1C(=O)[C@@H](NC(=O)c2cccc(C(F)(F)F)c2)[C@@H](c2ccc(F)cc2)c2c(CN(C)CC#N)nn(-c3ccccc3)c21 [Compound I-417] ?
OUT: 100 to 1000 nM

* * *

- System: DCN1 (DCUND1) protein PONY domain (Homo sapiens (Human), UniProt Q96GG9)
- Sequence (Q96GG9 60-248): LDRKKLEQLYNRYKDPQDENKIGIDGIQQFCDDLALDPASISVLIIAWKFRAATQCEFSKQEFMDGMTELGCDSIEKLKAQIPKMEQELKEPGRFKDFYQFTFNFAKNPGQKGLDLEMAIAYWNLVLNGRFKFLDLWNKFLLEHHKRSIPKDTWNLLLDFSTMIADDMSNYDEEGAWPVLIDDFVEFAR
- Experimental details: TR-FRET assay, DCN1 binding with FAM-labeled probe
- Assay setup: TR FRET IC50 1 hr (nM), 1 hr after treatment with compound
Measure: IC50

IN: May I ask what IC50 has been recorded for C/C=C/C(=O)NCc1nn(-c2ccccc2)c2c1[C@H](c1ccc(F)cc1)[C@H](NC(=O)c1cccc(C(F)(F)F)c1)C(=O)N2CC (racemic) ?
OUT: 200 to 1000 nM

IN: May I ask what IC50 has been recorded for CN1C(=O)[C@@H](NC(=O)c2cccc(C(F)(F)F)c2)[C@@H](C2CC2)c2c(C(=O)N3[C@H](C#N)C[C@H]4C[C@H]43)nn(C3CCOCC3)c21 (relative stereo) ?
OUT: ≤ 200 nM

IN: May I ask what IC50 has been recorded for C=C(CC(=O)OC)C(=O)NCc1nn(-c2ccccc2)c2c1[C@H](c1ccc(F)cc1)[C@H](NC(=O)c1cccc(C(F)(F)F)c1)C(=O)N2CC (racemic) [Compound I-17] ?
OUT: 1000 to 3000 nM

IN: May I ask what IC50 has been recorded for C=C(Cc1nn(-c2ccccc2)c2c1[C@H](c1ccc(F)cc1)[C@H](NC(=O)c1cccc(C(F)(F)F)c1)C(=O)N2CC)C(=O)OC(C)(C)C (racemic) ?
OUT: 1000 to 3000 nM

IN: May I ask what IC50 has been recorded for CCN1C(=O)[C@@H](NC(=O)c2ccc3c(c2)OCCO3)[C@@H](C2CC2)c2c(C(=O)N3[C@H](C#N)C[C@H]4C[C@H]43)nn(C3CCOCC3)c21 ?
OUT: 1000 to 3000 nM
